Tested on: HT-29
Test: Antiproliferative activity against human HT-29 cells after 72 hrs by CellTiter-Glo assay
Conditions: HT-29, 72 h
RESULT TYPE: EC50 (nM)

I = CCOC(=O)c1ncn2c1[C@@H](CC)N(C1CCCC1)c1nc(Nc3ccc(C(=O)NC4CCN(C)CC4)cc3OC)ncc1-2
II = CC[C@@H]1c2c(C(=O)N(C)O)ncn2-c2cnc(Nc3ccc(C(=O)NC4CCN(C)CC4)cc3OC)nc2N1C1CCCC1
III = CC[C@@H]1c2c(C#N)ncn2-c2cnc(Nc3ccc(C(=O)NC4CCN(C)CC4)cc3OC)nc2N1C(C)C
IV = CC[C@@H]1c2c(C(N)=O)ncn2-c2cnc(Nc3ccc(C(=O)NC4CCN(C)CC4)cc3OC)nc2N1C1CCCC1
V = CC[C@@H]1c2c(C#N)ncn2-c2cnc(Nc3cc(F)c(C(=O)NC4CCN(C)CC4)cc3OC)nc2N1C(C)C
List these items ordered by EC50, big to small. Put the labels in the order asked and list them.
II, IV, I, III, V
(II: 60 nM, IV: 20 nM, I: 9 nM, III: 6 nM, V: 4 nM)

----------
Assay: AUC (0 to t) in mouse at 5 mg/kg, po
Type: ADME, organism-based
Details: in vivo
RESULT TYPE: AUC(0-t) (ng·h/mL)
Note: unit ng·h/mL is implicit; provide only the numeric part.

I would be grateful if you could share the reported AUC(0-t) for CC[C@@H]1c2c(C#N)ncn2-c2cnc(Nc3cc(F)c(C(=O)N[C@H]4CC[C@H](N5CCN(CC6CC6)CC5)CC4)cc3OC)nc2N1C(C)C .
3900
